Would you mind telling me the reported IC50 of each entry?
Target: IGF-1R (Homo sapiens, UniProt P08069)
Construct: expressed in transfected cells
Sequence (P08069 31-1367): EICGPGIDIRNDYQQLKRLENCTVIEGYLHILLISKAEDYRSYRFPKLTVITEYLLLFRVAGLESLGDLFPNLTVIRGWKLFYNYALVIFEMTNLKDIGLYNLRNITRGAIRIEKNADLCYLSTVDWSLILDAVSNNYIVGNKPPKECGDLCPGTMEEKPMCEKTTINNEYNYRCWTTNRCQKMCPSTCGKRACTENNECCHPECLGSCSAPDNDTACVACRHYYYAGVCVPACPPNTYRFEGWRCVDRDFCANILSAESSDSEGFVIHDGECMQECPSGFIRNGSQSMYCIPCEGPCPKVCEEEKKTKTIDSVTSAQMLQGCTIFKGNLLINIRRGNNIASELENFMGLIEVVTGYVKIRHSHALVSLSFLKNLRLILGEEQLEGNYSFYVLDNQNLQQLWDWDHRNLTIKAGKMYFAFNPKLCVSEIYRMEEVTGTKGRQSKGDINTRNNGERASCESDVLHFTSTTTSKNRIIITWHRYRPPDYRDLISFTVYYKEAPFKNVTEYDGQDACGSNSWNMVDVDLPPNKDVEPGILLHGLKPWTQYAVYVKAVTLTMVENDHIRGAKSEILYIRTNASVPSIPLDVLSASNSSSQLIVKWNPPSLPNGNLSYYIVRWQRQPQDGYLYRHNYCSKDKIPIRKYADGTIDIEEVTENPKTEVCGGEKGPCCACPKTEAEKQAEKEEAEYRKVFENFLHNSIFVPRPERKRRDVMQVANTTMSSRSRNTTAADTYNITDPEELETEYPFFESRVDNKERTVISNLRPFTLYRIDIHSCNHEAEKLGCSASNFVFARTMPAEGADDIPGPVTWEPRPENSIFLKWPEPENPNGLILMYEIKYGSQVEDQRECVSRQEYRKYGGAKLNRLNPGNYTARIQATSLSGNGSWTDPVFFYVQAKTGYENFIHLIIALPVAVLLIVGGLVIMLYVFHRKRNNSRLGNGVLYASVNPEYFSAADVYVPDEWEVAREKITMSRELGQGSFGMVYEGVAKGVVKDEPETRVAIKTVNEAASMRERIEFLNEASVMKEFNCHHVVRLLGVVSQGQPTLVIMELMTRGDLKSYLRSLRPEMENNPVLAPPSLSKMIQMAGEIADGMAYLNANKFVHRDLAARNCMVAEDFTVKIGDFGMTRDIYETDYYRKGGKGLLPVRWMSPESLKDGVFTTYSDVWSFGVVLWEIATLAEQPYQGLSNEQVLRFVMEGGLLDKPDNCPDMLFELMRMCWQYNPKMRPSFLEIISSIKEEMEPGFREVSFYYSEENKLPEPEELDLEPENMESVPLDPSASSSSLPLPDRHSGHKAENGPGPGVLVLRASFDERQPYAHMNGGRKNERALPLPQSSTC
Assay: Example B-2: IGF-1R Assay (PathHunter cell lines, EC80 agonist challenge, chemiluminescent detection)
Format: cell-based
Settings: PathHunter cells, compound 60 minutes at 37° C., EC80 agonist 3 hours; read-out: IC50, Biological Activity against IGF-1R (Table B2)

Value of measured IC50 for the entry "CC1(C)C(=O)N(c2ccc(S(=O)(=O)C(F)F)cc2)C(=O)N1Cc1ccnc2c1CC(=O)N2" : 500 to 2000 nM

# IC50 of CC1(C)C(=O)N(c2ccc(C3(C#N)CC34CC4)cc2)C(=O)N1Cc1ccnc2c1CC(=O)N2 (stereo not shown) = ≤ 500 nM

Query "CN(C)CC(=O)Nc1cc(N2C(=O)N(Cc3ccnc4c3CC(=O)N4)C(C)(C)C2=O)ccc1OC(F)(F)F" yields IC50 of ≤ 500 nM

Quick note, IC50 for "CN1CC(C)(C)c2ccc(N3C(=O)N(Cc4ccnc(N[C@H]5CCOC5)c4)C(C)(C)C3=O)cc21" landed at 500 to 2000 nM

// field: IC50; key: "CC(C)Nc1cc(CN2C(=O)N(c3cnc4c(c3)N(C)CC4(C)C)C(=O)C2(C)C)ccn1" ; value = 2000 to 10000 nM

Measured IC50 of "CC1(Nc2cc(CN3C(=O)N(c4ccc(C5(C(F)(F)F)CC5)cc4)C(=O)C3(C)C)ccn2)CC1" : ≤ 500 nM

So, "CC(C)Nc1cc(CN2C(=O)N(c3ccc(SC(F)(F)F)cc3)C(=O)[C@@H]2CO)ccn1" ? Its IC50 was > 10000 nM

====

Provide the reported pIC50 of each item.
Molecular target: IGF-1R (Homo sapiens)
Construct: expressed in transfected cells
Assay: Example B-1: IGF-1R Assay (PC3 cells stimulated with IGF1, AlphaLISA on cell lysates)
Assay type: cell-based
Details: compound two hours, IGF1 200 ng/mL for 30 min, read-out: IC50, Biological Activity against IGF-1R (Table B1)
pIC50: −log10 of the molar value.

The molecule CC(C)Nc1cc(CN2C(=O)N(c3ccc4c(c3)OCC4(C)C)C(=O)C2(C)C)ccn1 [Compound 189] showed pIC50 equal to ≥ 6.30

// pIC50 value for CC(C)(C)c1ccc(N2C(=O)N(Cc3ccnc(NC4CC(F)(F)C4)c3)C(C)(C)C2=O)cc1 [Compound 270] : ≥ 6.30

get_value(item= CC1(C)C(=O)N(c2ccc(S(=O)(=O)C(F)(F)F)cc2)C(=O)N1Cc1ccnc2c1CC(=O)N2 [Compound 23] , readout=pIC50) returns ≥ 6.30

Value of measured pIC50 for the entry CC(C)Nc1cc(CN2C(=O)N(c3ccc(C4(C)CC(F)(F)C4)cc3)C(=O)C2(C)C)ccn1 [Compound 116] : ≥ 6.30

// pIC50 value for Nc1cc(CN2C(=O)N(c3ccc(SC(F)(F)F)cc3)C(=O)[C@@H]2c2ccccc2)ccn1 [Compound 294] : < 5.00

So for Cc1cc2c(CN3C(=O)N(c4ccc(C5(C(F)(F)F)CC5)cc4)C(=O)C3(C)C)ccnc2[nH]1 [Compound 9] , the logged pIC50 turned out to be ≥ 6.30

CC1(C)C(=O)N(c2ccc(SC(F)(F)F)cc2)C(=O)N1Cc1ccnc2[nH]cc(Cl)c12 [Compound 5] yielded pIC50 of ≥ 6.30

Value of measured pIC50 for the entry CC1(C)C(=O)N(c2ccc(SC(F)(F)F)cc2)C(=O)N1Cc1ccnc(NC(=O)NC2COC2)c1 [Compound 308] : ≥ 6.30

In plain terms, CC(C)Nc1cc(CN2C(=O)N(c3ccc4c(c3)NC(=O)C43CC3)C(=O)C2(C)C)ccn1 [Compound 187] has a documented pIC50 of 5.00 to 5.70

pIC50 recorded for this molecule, CC(C)C#Cc1cc(CN2C(=O)N(c3ccc(SC(F)(F)F)cc3)C(=O)C2(C)C)cnc1N [Compound 385] , is 5.70 to 6.30

Memo: COc1c(CN2C(=O)N(c3ccc(S(=O)(=O)C(F)(F)F)cc3)C(=O)C2(C)C)ccnc1N [Compound 394] , reported pIC50: ≥ 6.30

GET /value?item= CCC1(C)C(=O)N(c2ccc(SC(F)(F)F)cc2)C(=O)N1Cc1ccnc(N)c1 (stereo not drawn) [Compound 297] &field=pIC50 returns ≥ 6.30

Lab note: measured pIC50 of CC1(C)C(=O)N(c2ccc(SC(F)(F)F)cc2)C(=O)N1Cc1ccnc(Nc2ncc[nH]2)c1 [Compound 352] was ≥ 6.30

Looking up CC(C)Nc1cc(CN2C(=O)N(c3ccc(C4(F)CC4)cc3)C(=O)C2(C)C)ccn1 [Compound 99] , I see its pIC50 listed as 5.70 to 6.30

// field: pIC50; key: CC1(C)C(=O)N(c2ccc(SC(F)(F)F)cc2)C(=O)N1CCc1cn[nH]c1 [Compound 400] ; value = 5.00 to 5.70

For this molecule ( CC1(C)CNc2nccc(CN3C(=O)N(c4ccc(SC(F)(F)F)cc4)C(=O)C3(C)C)c21 [Compound 20] ), measured pIC50 is ≥ 6.30

Query CC1(C)C(=O)N(c2ccc(C3(C(F)(F)F)CC3)cc2)C(=O)N1Cc1ccnc2c1CCCN2 [Compound 18] yields pIC50 of ≥ 6.30

Sample CC1(C)C(=O)N(c2ccc(C3(C(F)(F)F)CC3)cc2)C(=O)N1Cc1ccnc(N[C@@H]2CCOC2)c1 [Compound 118] ; pIC50 observed: ≥ 6.30

The value of pIC50 measured for the molecule CC1(C)C(=O)N(c2ccc(S(=O)(=O)C(F)(F)F)cc2)C(=O)N1Cc1ccnc(N[C@H]2[C@@H]3COC[C@@H]32)c1 [Compound 319] turned out to be ≥ 6.30

Reported pIC50 of CN(C)CC(=O)Nc1cc(CN2C(=O)N(c3ccc(SC(F)(F)F)cc3)C(=O)C2(C)C)ccn1 [Compound 348] : ≥ 6.30

// pIC50 lookup, molecule = CC1(C)C(=O)N(c2ccc(C3(CO)CC3)cc2)C(=O)N1Cc1ccnc(N)c1 [Compound 100] , result: 5.70 to 6.30

// pIC50 value for CN1CC(Oc2ccc(Nc3cc(CN4C(=O)N(c5ccc(SC(F)(F)F)cc5)C(=O)C4(C)C)ccn3)cc2)C1 [Compound 349] : ≥ 6.30

The recorded pIC50 for entry CC(C)Nc1nccc(CN2C(=O)N(c3ccc(SC(F)(F)F)cc3)C(=O)C2(C)C)c1F [Compound 382] equals 5.00 to 5.70

pIC50 reported for this molecule COC[C@@H](C)Nc1cc(CN2C(=O)N(c3ccc(C4(C(F)(F)F)CC4)cc3)C(=O)C2(C)C)ccn1 [Compound 114] : ≥ 6.30

GET /value?item= Nc1cc(CN2C(=O)N(c3ccc(SC(F)(F)F)cc3)C(=O)C23CCCC3)ccn1 [Compound 291] &field=pIC50 returns 5.70 to 6.30

// pIC50 lookup, molecule = CC(C)(C)c1ccc(N2C(=O)N(Cc3ccnc(-c4ccccc4)c3)C(C)(C)C2=O)cc1 [Compound 346] , result: 5.70 to 6.30

For record CN(C)C(=O)c1cncc(Nc2cc(CN3C(=O)N(c4ccc(SC(F)(F)F)cc4)C(=O)C3(C)C)ccn2)c1 [Compound 359] the listed pIC50 is ≥ 6.30

Measured pIC50, CC1(C)Cc2c(CN3C(=O)N(c4ccc(SC(F)(F)F)cc4)C(=O)C3(C)C)ccnc2N1 [Compound 21] : ≥ 6.30

Query Cn1nc(C(F)(F)F)c2ccc(N3C(=O)N(Cc4ccnc(N)c4)C(C)(C)C3=O)cc21 [Compound 255] yields pIC50 of 5.70 to 6.30

GET /value?item= CC1(C)C(=O)N(c2ccc(C3=CCCCC3)cc2)C(=O)N1Cc1ccnc(N)c1 [Compound 86] &field=pIC50 returns 5.70 to 6.30
